system.under.test: PPAR-α (Homo sapiens, UniProt Q07869)
Construct: expressed in transfected cells; host or cells: HeLa cells
Sequence (Q07869 1-468): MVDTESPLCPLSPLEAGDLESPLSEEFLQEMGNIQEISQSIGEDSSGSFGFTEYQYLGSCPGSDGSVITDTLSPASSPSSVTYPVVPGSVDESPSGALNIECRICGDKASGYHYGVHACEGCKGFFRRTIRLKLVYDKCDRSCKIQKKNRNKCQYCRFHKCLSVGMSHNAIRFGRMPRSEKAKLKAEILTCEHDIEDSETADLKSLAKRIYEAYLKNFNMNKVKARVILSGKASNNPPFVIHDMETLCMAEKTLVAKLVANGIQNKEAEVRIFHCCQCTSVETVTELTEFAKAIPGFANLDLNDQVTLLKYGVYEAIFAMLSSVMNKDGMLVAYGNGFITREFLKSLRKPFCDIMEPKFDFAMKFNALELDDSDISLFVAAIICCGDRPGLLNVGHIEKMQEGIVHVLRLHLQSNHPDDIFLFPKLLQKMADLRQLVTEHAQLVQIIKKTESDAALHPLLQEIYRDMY
assay.explanation: transactivation test of PPAR-type receptors (luciferase reporter, cotransfected HeLa cells), PPAR-α
Type: cell-based
condition: HeLa cells cotransfected with PPAR-α expression vector and PPRE-luciferase reporter, 24 hours; relative to Reference 1; n.a. = not active
quantity.measured: α Ymax % (%)
Give bare numbers, in %.

// worked examples, α Ymax % included
// CCCCCC#CCC#CCC#CCSCC(=O)O : α Ymax % value = 138

// CCCCCCCCSCC#CCSCC(=O)O : α Ymax % value = 91

Please examine the following record next.
// Cc1cccc(Nc2cc(Cl)nc(SCC(=O)O)n2)c1C [Reference 1] : α Ymax % value = 100

* * *

Answer each item with its documented α Ymax %.
system.under.test: PPAR-α (Homo sapiens, UniProt Q07869)
Construct: expressed in transfected cells; host or cells: HeLa cells
assay.explanation: transactivation test of PPAR-type receptors (luciferase reporter, cotransfected HeLa cells), PPAR-α
Format: cell-based
condition: HeLa cells cotransfected with PPAR-α expression vector and PPRE-luciferase reporter, 24 hours; relative to Reference 1; n.a. = not active
Output should be the measured figure followed by the unit it is expressed in.

// worked examples, α Ymax % included
// CCCCCCCCC#CCC#CCSCC(=O)O : α Ymax % value = 116%

// CCCCCCCCCCC#CCSCC(=O)O : α Ymax % value = 142%

// CCCCCC#CCC#CCC#CCC#CCSCC(=O)O : α Ymax % value = 128%

Please examine the following record next.
// CCCCCCCCC#CCC#CCC#CCSCC(=O)O : α Ymax % value = 112%

* * *

system.under.test: PPAR-α (Homo sapiens, UniProt Q07869)
Construct: expressed in transfected cells; host or cells: HeLa cells
assay.explanation: transactivation test of PPAR-type receptors (luciferase reporter, cotransfected HeLa cells), PPAR-α
Type: cell-based
condition: HeLa cells cotransfected with PPAR-α expression vector and PPRE-luciferase reporter, 24 hours; concentration giving 50% of the activity of the reference molecule; n.a. = not active
quantity.measured: AC50 (µM)
Give bare numbers, in µM.

// worked examples, AC50 included
// CCCCCC#CCC#CCC#CCC#CCSCC(=O)O : AC50 value = 4

// CCCCCCCCC#CCC#CCC#CCSCC(=O)O : AC50 value = 5

// CCCCCCCCCCC#CCSCC(=O)O : AC50 value = 1.5

Field: AC50. Fill in for each record below.
1. CCCCCCCCSCC#CCSCC(=O)O
2. CCCCCCCCC#CCC#CCSCC(=O)O
3. CCCCCC#CCC#CCC#CCSCC(=O)O

Result ::
1: 2.9; 2: 1; 3: 3
